biological target: rP2X4R S289A mutant (Rattus norvegicus, UniProt P51577, S289A); assay: whole-cell patch clamp, HEK293T cells expressing mutant; details: naïve receptors, 2–5 s application
reportedProperty: EC50 (µM)
Field: numeric (µM). Do not append units.

Incoming: Supply reported EC50 belonging to this compound: `Nc1ncnc2c1ncn2[C@@H]1O[C@H](COP(=O)(O)OP(=O)(O)OP(=O)(O)O)[C@@H](O)[C@H]1O`
Outgoing: 3.6

---

molecular target: rP2X4R I205A mutant (Rattus norvegicus, UniProt P51577, I205A); experiment: whole-cell patch clamp, HEK293T cells expressing mutant; details: naïve receptors, 2–5 s application
reportedProperty: pEC50
The scale used: pEC50 is minus the common logarithm of the concentration in molar units.

Incoming: Supply reported pEC50 belonging to this compound: Nc1ncnc2c1ncn2[C@@H]1O[C@H](COP(=O)(O)OP(=O)(O)OP(=O)(O)O)[C@@H](O)[C@H]1O [ATP]
Outgoing: 4.59

---

Target: rP2X4R L284A mutant (Rattus norvegicus, UniProt P51577, L284A)
Construct: expressed in transfected cells; host or cells: HEK293T
Sequence (P51577 1-388 L284A): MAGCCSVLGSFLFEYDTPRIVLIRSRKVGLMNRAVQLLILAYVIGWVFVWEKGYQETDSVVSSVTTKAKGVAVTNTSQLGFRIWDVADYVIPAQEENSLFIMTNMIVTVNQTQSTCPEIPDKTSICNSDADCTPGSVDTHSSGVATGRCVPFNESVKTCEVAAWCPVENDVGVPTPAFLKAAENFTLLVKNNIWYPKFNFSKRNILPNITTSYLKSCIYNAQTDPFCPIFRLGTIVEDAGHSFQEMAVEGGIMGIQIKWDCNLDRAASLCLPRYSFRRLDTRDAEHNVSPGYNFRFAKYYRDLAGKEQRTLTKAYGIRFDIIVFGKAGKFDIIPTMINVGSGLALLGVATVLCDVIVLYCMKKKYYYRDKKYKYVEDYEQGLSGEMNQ
Assay: whole-cell patch clamp, HEK293T cells expressing mutant
Type: cell-based
Details: naïve receptors, 2–5 s application
Procedure: To express the recombinant channels, we used human embryonic kidney (HEK) 293T cells (American Type Culture Collection, Rockville, MD, USA) grown in Dulbecco modified Eagle’s medium (Thermo Fisher Scientific, Waltham, MA) supplemented with 10% fetal bovine serum (Sigma-Aldrich, St Louis, MO), 50 U/ml penicillin and 50 µg/ml streptomycin (both Thermo Fisher Scientific, Waltham, MA) in a humidified 5% CO2 and 95% air at 37°C. […]
reportedProperty: EC50 (µM)
Field: numeric (µM). Do not append units.

Incoming: Supply reported EC50 belonging to this molecule: Nc1ncnc2c1ncn2[C@@H]1O[C@H](COP(=O)(O)OP(=O)(O)OP(=O)(O)O)[C@@H](O)[C@H]1O [ATP]
Outgoing: 3.9

---

Biological target: rP2X4R Y292A mutant (Rattus norvegicus, UniProt P51577, Y292A)
Sequence (P51577 1-388 Y292A): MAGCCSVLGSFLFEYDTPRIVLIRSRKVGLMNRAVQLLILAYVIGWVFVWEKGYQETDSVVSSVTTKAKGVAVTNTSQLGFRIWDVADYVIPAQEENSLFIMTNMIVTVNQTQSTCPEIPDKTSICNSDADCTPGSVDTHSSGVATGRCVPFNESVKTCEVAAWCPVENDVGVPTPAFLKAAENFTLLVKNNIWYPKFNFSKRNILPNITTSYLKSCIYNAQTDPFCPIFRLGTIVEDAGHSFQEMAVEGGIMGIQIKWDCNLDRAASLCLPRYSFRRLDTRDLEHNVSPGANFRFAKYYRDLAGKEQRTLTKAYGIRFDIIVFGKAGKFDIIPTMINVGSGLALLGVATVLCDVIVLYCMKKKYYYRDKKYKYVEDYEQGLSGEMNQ
Test: whole-cell patch clamp, HEK293T cells expressing mutant
Conditions: naïve receptors, 2–5 s application
reportedProperty: pEC50
The scale used: pEC50 is minus the common logarithm of the concentration in molar units.

Incoming: Supply reported pEC50 belonging to this compound: `Nc1ncnc2c1ncn2[C@@H]1O[C@H](COP(=O)(O)OP(=O)(O)OP(=O)(O)O)[C@@H](O)[C@H]1O`
Outgoing: 5.14
